target: PDE5A1 (Homo sapiens, UniProt O76074); test: PDE5A1 inhibition assay, enzyme reaction with HPLC detection of cGMP; format: biochemical; details: 0.15 µg/mL PDE5A1, 7.5 µg/mL cGMP, 90 min at 35 ℃, read-out: PDE5A1 (IC50 ± SD)
Form field: pIC50 (one value per entry).
The quantity pIC50 is defined as the negative base-10 logarithm of the molar concentration.

[[record]]
molecule = "COc1ccc(-c2oc3c(CC=C(C)C)c(OC4OC(CO)C(O)C(O)C4O)cc(O)c3c(=O)c2OC2OC(C)C(O)C(O)C2OC2OCC(O)C(O)C2O)cc1 (stereo not shown) [Compound 5, epimedin B]"
val = 3.45


Need pIC50 of COc1ccc(-c2oc3c(CC=C(C)C)c(OC4OC(CO)C(O)C(O)C4O)cc(O)c3c(=O)c2OC2OC(C)C(O)C(O)C2OC2OC(CO)C(O)C(O)C2O)cc1 (stereo not shown) [Compound 4, epimedin A] , thanks.
3.39

Need pIC50 of COc1ccc(-c2oc3c(CC=C(C)C)c(OC4OC(CO)C(O)C(O)C4O)cc(O)c3c(=O)c2OC2OC(C)C(O)C(O)C2OC2OC(C)C(O)C(O)C2O)cc1 (stereo not shown) [Compound 6, epimedin C] , thanks.
3.17

Need pIC50 of COc1ccc(-c2oc3c(CC=C(C)C)c(O)cc(O)c3c(=O)c2OC2OC(C)C(O)C(O)C2OC2OC(C)C(O)C(O)C2O)cc1 (stereo not shown) [Compound 2, 2-O"-rhamnosylicaridide II] , thanks.
5.49

These entries and their values trace back to paper PMC9805685.
